- Tested on: TCC97-7 bladder cancer cells carrying the Ser249Cys mutation of FGF receptor 3
- METHOD: Reduction of intracellular ATP content of TCC97-7 cells (Cell Titer-Glo, 3 days, serum-supplemented medium)
- Assay type: cell-based
- CONDITION CONTEXT: 72 h, 10 μM, TCC97-7 cells in presence of serum, read-out: Inhibition of the amount of intracellular ATP (%)
VALUE KIND: inhibition at 10 µM

Supply recorded inhibition at 10 µM for CN(C)CCNC(=O)c1cccc(-c2nc(C(=O)c3ccc4c(c3)c(=O)n(Cc3ccc(F)cc3)c(=O)n4C)n3ccccc23)c1.Cl [compound 116, hydrochloride] here.
95%

Could you please provide reported inhibition at 10 µM for Cn1c(=O)n(Cc2ccc(F)cc2)c(=O)c2cc(C(=O)c3nc(-c4cccnc4)c4ccccn34)ccc21 ? Thanks!
88%

Answer with reported inhibition at 10 µM of CCCn1c(=O)[nH]c2ccc(C(=O)c3nc(-c4cccc(C(N)=O)c4)c4ccccn34)cc2c1=O
24%

Output measured inhibition at 10 µM for this item: CCCn1c(C)nc2ccc(C(=O)c3nc(-c4cccc(C(N)=O)c4)c4ccccn34)cc2c1=O
57%

====

- METHOD: Cytotoxic effect: percentage of permeabilized (very fluorescent, Hoechst 33342) TCC97-7 cells
- Format: cell-based
- CONDITION CONTEXT: human, 0.01 μM, read-out: Cytotoxicity (% of permeable cells)
- Method: In parallel to their antiproliferative capacity, the potential cytotoxic effect of the FGF-R antagonists is measured by means of quantifying the number of cells of which the membranes are permeabilized. […] This is reflected by a very strong increase in the amount of fluorescence detected in the nuclei. The percentage of cells in a state of cell death is calculated by the ratio between the number of very fluorescent nuclei to the total number of nuclei, multiplied by 100. […]
Would you mind telling me the reported cytotoxicity at 3 days, 0.01 µM of each entry?
State just the number; it will be interpreted in %.

Given Cn1c(=O)n(Cc2ccc(F)cc2)c(=O)c2cc(C(=O)c3nc(-c4cccnc4)c4ccccn34)ccc21 , respond with its cytotoxicity at 3 days, 0.01 µM.
4

Output measured cytotoxicity at 3 days, 0.01 µM for this item: CCCn1c(C)nc2ccc(C(=O)c3nc(-c4cccc(C(N)=O)c4)c4ccccn34)cc2c1=O
5

Answer with the recorded cytotoxicity at 3 days, 0.01 µM of CN(C)CCNC(=O)c1cccc(-c2nc(C(=O)c3ccc4c(c3)c(=O)n(Cc3ccc(F)cc3)c(=O)n4C)n3ccccc23)c1.Cl [compound 116, hydrochloride] only.
2

Name the recorded cytotoxicity at 3 days, 0.01 µM of the compound listed here: CCCn1c(=O)[nH]c2ccc(C(=O)c3nc(-c4cccc(C(N)=O)c4)c4ccccn34)cc2c1=O
3

====

- Test system: TCC97-7 bladder cancer tumour cells carrying the Ser249Cys mutation of FGF receptor 3
- METHOD: Cytotoxic effect: percentage of permeabilized (very fluorescent, Hoechst 33342) TCC97-7 cells
- Assay type: cell-based
- CONDITION CONTEXT: 0.01 μM, 3 days
Label key: TRUE means Cytotoxicity (% of permeable cells) under 3%; FALSE means Cytotoxicity (% of permeable cells) of 3% or more.

A record lists Cn1c(=O)n(Cc2ccc(F)cc2)c(=O)c2cc(C(=O)c3ncc4ccccn34)ccc21 . Is its Cytotoxicity (% of permeable cells) below 3%?
FALSE

# strict comparison: is reported Cytotoxicity (% of permeable cells) < 3%? input = CCCn1c(=O)n(CCOc2ccc(F)cc2)c(=O)c2cc(C(=O)c3nc(-c4cccc(C(=O)[O-])c4)c4ccccn34)ccc21.[Na+]
FALSE

Confirm or reject: Cytotoxicity (% of permeable cells) of Cc1ccc(Cn2c(=O)c3cc(C(=O)c4nc(-c5cccnc5)c5ccccn45)ccc3n(C)c2=O)s1 lies strictly below 3%
FALSE

Cytotoxicity (% of permeable cells) under 3%? Item: Cc1nnc(-c2cccc(-c3nc(C(=O)c4ccc5c(c4)c(=O)n(Cc4ccc(F)cc4)c(=O)n5C)n4ccccc34)c2)o1
TRUE

Field: below-cutoff. Rule: recorded Cytotoxicity (% of permeable cells) strictly less than 3%. Subject: Cc1ccc(Cn2c(=O)c3cc(C(=O)c4nc(-c5cccc(C(=O)[O-])c5)c5ccccn45)ccc3n(C)c2=O)s1.[Na+]
TRUE

Hello, is Cytotoxicity (% of permeable cells) of the following compound strictly smaller than 3%? CCOC(=O)c1cccc(-c2nc(C(=O)c3ccc4c(c3)c(=O)n(Cc3ccc(F)cc3)c(=O)n4C)n3ccccc23)c1
TRUE

Here's an entry: COCn1c(=O)n(Cc2ccc(F)cc2)c(=O)c2cc(C(=O)c3nc(-c4cccc(C(=O)[O-])c4)c4ccccn34)ccc21.[Na+] . Is its Cytotoxicity (% of permeable cells) below 3%?
FALSE
